Sourced from the supplement of paper PMC10266784

B1: library; numbered along this chain (parent)
chain: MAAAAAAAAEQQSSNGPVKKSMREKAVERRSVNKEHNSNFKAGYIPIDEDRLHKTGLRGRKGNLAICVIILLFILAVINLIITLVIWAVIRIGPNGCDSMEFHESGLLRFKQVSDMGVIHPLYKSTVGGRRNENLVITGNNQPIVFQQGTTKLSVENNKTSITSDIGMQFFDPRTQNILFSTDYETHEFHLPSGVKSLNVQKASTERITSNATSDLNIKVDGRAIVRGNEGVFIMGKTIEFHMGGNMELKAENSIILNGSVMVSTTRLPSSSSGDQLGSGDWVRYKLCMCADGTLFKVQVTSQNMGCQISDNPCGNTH

Variants of: B1
EXPERIMENTAL PROTOCOL: SGCB cell-surface expression functional score (HA stain, bin4 vs bin1, normalised to synonymous) (log10 ratio); higher = more cell-surface SGCB (functional)
REPORTED METRIC: SGCB cell-surface expression functional score (log10)

INSERT INTO results (variant_id, numeric_result) VALUES
  ('K250C', 0.5),
  ('K19H', 0.21),
  ('T238K', 0.3),
  ('G106W', -0.87),
  ('A4G', 0.26),
  ('S125H', -0.37);
